Ref: patent US20230416347A1

- target-or-system: T1, Len(1-22) monomer peptide (Homo sapiens (Human), UniProt P06312 21-42)
- T1 construct: Analyte in SPR; on beads in the pulldown assay; also called Vκ4(LEN(1-22) beads)
- T1 peptide: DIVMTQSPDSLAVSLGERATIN
- protocol-description: SPR, antibody as ligand, peptide as analyte
measured-attribute: kon (M⁻¹ s⁻¹)
# value in M⁻¹ s⁻¹; strip the unit string

Ask: Field request: kon | item: VH9-D54E + VL4 (antibody, V domains shown, Humanized 11-1F4 variant) VH: QVQLQESGPGLVKPSETLSLTCTVSGFSLSSYGVSWIRQPPGKGLEWLGVIWGEGSTNYHPNLMSRVTISVDTSKSQVLFKLSSVTAADTAVYYCATLDYWGQGTSVTVSS VL: DVVMTQSPLSLPVTLGQPASISCRSSQSLVHRNGNTYLHWFQQRPGQSPRLLIYKVSNRFSGVPDRFSGSGSGTDFTLKISRVEAEDVGVYFCFQTTYVPNTFGGGTKLEIK
Reply: 8280

Ask: Form field: reported kon of VH9-D54S + VL4 (antibody, V domains shown, Humanized 11-1F4 variant) VH: QVQLQESGPGLVKPSETLSLTCTVSGFSLSSYGVSWIRQPPGKGLEWLGVIWGSGSTNYHPNLMSRVTISVDTSKSQVLFKLSSVTAADTAVYYCATLDYWGQGTSVTVSS VL: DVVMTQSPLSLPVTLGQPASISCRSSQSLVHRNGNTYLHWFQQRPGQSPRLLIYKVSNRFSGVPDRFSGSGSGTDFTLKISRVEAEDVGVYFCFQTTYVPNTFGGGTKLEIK
Reply: 2300

Ask: Which kon value is on record for VH9 + VL4-N33A (antibody, V domains shown, Humanized 11-1F4 variant) VH: QVQLQESGPGLVKPSETLSLTCTVSGFSLSSYGVSWIRQPPGKGLEWLGVIWGDGSTNYHPNLMSRVTISVDTSKSQVLFKLSSVTAADTAVYYCATLDYWGQGTSVTVSS VL: DVVMTQSPLSLPVTLGQPASISCRSSQSLVHRAGNTYLHWFQQRPGQSPRLLIYKVSNRFSGVPDRFSGSGSGTDFTLKISRVEAEDVGVYFCFQTTYVPNTFGGGTKLEIK ?
Reply: 11300

Ask: kon for VH9-M64L + VL4 (antibody, V domains shown, Humanized 11-1F4 variant) VH: QVQLQESGPGLVKPSETLSLTCTVSGFSLSSYGVSWIRQPPGKGLEWLGVIWGDGSTNYHPNLLSRVTISVDTSKSQVLFKLSSVTAADTAVYYCATLDYWGQGTSVTVSS VL: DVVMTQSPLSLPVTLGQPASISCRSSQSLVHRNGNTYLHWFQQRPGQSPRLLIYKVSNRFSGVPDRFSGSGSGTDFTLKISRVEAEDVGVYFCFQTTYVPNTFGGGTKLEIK ?
Reply: 93000

Ask: // kon lookup, key: VH9-G55V + VL4 (antibody, V domains shown, Humanized 11-1F4 variant) VH: QVQLQESGPGLVKPSETLSLTCTVSGFSLSSYGVSWIRQPPGKGLEWLGVIWGDVSTNYHPNLMSRVTISVDTSKSQVLFKLSSVTAADTAVYYCATLDYWGQGTSVTVSS VL: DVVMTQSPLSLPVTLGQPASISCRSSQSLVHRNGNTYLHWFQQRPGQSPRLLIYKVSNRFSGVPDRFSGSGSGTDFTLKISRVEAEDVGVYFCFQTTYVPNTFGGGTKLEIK
Reply: 3380
